Tested on: K4 kissing-loop RNA reporter
Test: apparent KD of K4 kissing-loop reporter; higher = weaker reporter binding
Settings: Eterna round: R107; input ligand: arginine 13.2 mM
Kindly supply the reported apparent KD of K4 kissing-loop reporter values for the records listed here.
Enter your answer as a number in nM; do not include the unit.

Return reported apparent KD of K4 kissing-loop reporter; argument: GGCCGCAAGGCGGGCCGGCCCACUCCGGAAGGAGCGCCCGCAAGGGCAGGUAGGUCGCCGGAGUGAUGUUCCGGUGGCCGGCCCG [#2 Exclusion - Arginine A Attempt #2 (Inspired by Omei)]
136

Another sequence: AGAGUUAUGCGAGGAUAUGCAGUUAGUACUCAAAGAGUACUAACAGCAGAGUGAUGUUCUGUGAAAGCAGAAGGUGCAUAACUCA [Omei KL FMN B SS B v7]
630

Here is the next sequence: UUGGCCGGACGGGAUACCAGUCAAAUCGUGUGCUUGGGAUGUCUAAGAGCCAGUGAUGUUGGCCCUUGGCAGCCCUCCCAGCUUG [Esleaqu]
105

Same for GGAUAGGACAGAGGAUAUGGACAGUCUACAAAGUAGGCUGAAUAAAUCCUUGAAUGGAGUGAUGUUCCAGAAGGCUGUCCUAUCG [FmnBX 22 #SwitchBubble #StaticStem #Palindromic]
384

Consider next the sequence ACCAUCAAAGAUGGCCAGGACUCAACUGAUACCAGAGUGAAAACACUCCCUUGGCAGCAGGUGAGUGAUGUUCACGAGUCCUGGA [Omel KL Theo A SS B v7] in the same way.
82

Can you check CGCGCGCGUUUGAGAGGGCGCGCGCGAAGUGAGGAUAUUUAGGGAGAAAGAAGGCACUAUAAAAUAUAGUGAUGUUAUAUAAGGG [SSFMNA.F] next?
111

Please give the result for UGCUUUAUCAGAAGGAGCGCGUUGGUCAUAAUAAUAAUCAGUGAUGUUGAUAUAUGAGGAUUGCAGGUAGGUCGCUGAUAUAGCU [KL-XARG-B1] too.
210

// repeat for GUGCAAAGCACCGGCACGAGCAGCCUAAAGGAGGAUAUGACGAAAGUCAGAAGGUCUAGUGAUGUUAGGCCUUGCUUGAGUCGAA [Omei KL FMN A Exc B v3] and report
278

Thanks! And GGUUCCUCAGUGAUGUUGAGGUGACCUCGGCAGGAUAUAGGCAUUACUAGAAGGGCCAAAAGAACCCUGUCCAGCGACACAGGGA [Zalatiat] ?
238

Check CGAGUGAUGUUCGUUCGUUUAUUUGGGUGACAGGAUAUGCGGAAACGCAGAAGGGUCACCUUCGGGUUACCCGAAUUAACGUUAU [#09 K4 FMN A Exclusion] too.
520

Okay, and AGAGUUAUAUGAGGAUAUGAGAUAGUUAAUGAGUGAGUUAUAGUGUAGUUUGGUUAGUGAUGUUAUUUAGAAGGCGUGAGUGAUG [reefmullin] ?
76.5

Then what about the sequence `AAAAUAAUCCAGUGAUGUUGGUUUCCAGAUACCAGCGACGAAAGUCGCCCUUGGCAGCUGUGGACGUACAAAAUAAGUACGUCCU` ?
362

---

Test system: K4 kissing-loop RNA reporter;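 also: bound reporter read as fluorescence of individual clusters on recovered sequencing chips by microscopy, with normalized cluster intensities fitted with a binding model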
Test: apparent KD of K4 kissing-loop reporter; higher = weaker reporter binding
Settings: Eterna round: R107; input ligand: none
Could you please report measured apparent KD of K4 kissing-loop reporter for the items listed next?
Field: numeric (nM). Do not append units.

# apparent KD of K4 kissing-loop reporter lookup, item AUCUGGUUGGGCGAUACCAGUUUGGCAUAGUGAUGUUAUGCAACGCUCAGUGCAAGGCCAAACCCUUGGCAGCGCACAUCCUUUC [theeternabot_exclusion_KL_Theo_B_3]
105

Repeat for the following sequence: UAGCGGUGGAGGCCACCGCUAUUCUGAGAAGGAGCGCAGAUGACUGCAGGUAGGUCGCUUAGAGCUUGCAGUGAUGUUGCAAGUU [Araatlaqu]
191

Next entry: AUUUUGGUUUAGAGUGAUGUUCCUUGUAUUCGAGGACCGGUACGGCCGCCACUCGAAUAGAAAAGAAAAGAAAUGUUUGAUUUUU [BDazzled - #7 SS Tryptophan A]
556

Now try CUAGAAGUGAUGUUUCAUAGUAAAUCUGAUACCAGCAUUAAACCCUGCCCUUGGCAGCAGAAUGGGCUGAUAGACUCCUGCAGCU [theeternabot_sameState_KL_Theo_A_36] .
228

Note, next up: UGGACAUGACUCGAUAAGAGUCAAUGGGAUACCAGUGACGAAAGUCACCCUUGGCAGCUCAACUGCCAGUGAUGUUGGUAGUCCU [Astros-Elimod]
207

Also AUUUGUUUAUGCGAUACCAGACUAAGCAGUGAUGUUGCUUUUAUUUUUGAAUUUUAAAUAGUCCCUUGGCAGCGCUAUGUCUGUA [#06 K4 Theophylline B Same State] ?
183

Check GUGUGACUAGUGAUGUUGGUUGCGUGGGAAGGAGCGCAGUAAAAUGCAGGUAGGUCGCCCGUAUCUCUGAUAAAAGAUUAAUUCA [KL-SSArg-A10] too.
158

Now consider CCAUCGCUAUUCGAUACCAGUCAGGAGGUCUGUGACCUCCUAAUGGAGUGAUGUUCCUUAGACCCUUGGCAGCGAAUAGUGAUGG [#02 K4 Theophylline B Same State] and answer again.
221

Now consider GGGCGUGGCGCGGCCGCCACUGGGCCUGGGCGCUCGCUGAGUGAUGUUCGUCGGCGGUUGGGUCGUAGGACCGGGUGCUGGUUGG [BDazzled - #8 SS Tryptophan B] and answer again.
516

Next sequence up: GGCAGAGUGAUGUUCGCCCUUUACCUUGAUACCAGUUCAUCUCAAAACCCUUGGCAGCAAGUGUGUAAGAGCGGUAUUGGUCAAU [theeternabot_exclusion_KL_Theo_A_1]
388

Follow-up item: `AAAUAGAUCAGUCAACCAGUGAUGUUGGAAGGAGCGUGCGAAAGCACAGGUAGGUCGCCAGAAUAAAAGUGGCUGAUCAAAAUAA`
374

Repeat with UGAGUUUGAGUGAUGUUCAGGCAUUGGUACGAGGAUAUCGAGGAGUUGAGAAGGCGUACUGCUCAACUUUGUAUGAAUACAUACA [FMN A Ex t2b]
106
